Target: T1, P4mS
T1 chain: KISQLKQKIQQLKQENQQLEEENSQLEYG
Test: two-hybrid library CC1;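 further: natural log of median RNA to DNA barcode read ratio; higher means stronger binding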
Details: mean of both orientations
quantity.measured: interaction score
Give bare numbers.

Some binders with known interaction score results, for comparison:
binder | readout.value
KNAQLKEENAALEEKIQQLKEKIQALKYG [P10] | -2.94
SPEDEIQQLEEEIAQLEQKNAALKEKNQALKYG [P3] | 0.336
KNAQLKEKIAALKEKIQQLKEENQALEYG [P12] | -2.91
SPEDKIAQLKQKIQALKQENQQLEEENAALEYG [P4] | -2.91
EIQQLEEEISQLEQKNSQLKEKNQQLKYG [P3mS] | 0.221

As a next step, examine the binder that follows.
Q. If you can, please state the reported interaction score value of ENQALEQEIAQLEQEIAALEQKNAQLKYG [P11] .
A. -1.07
